- Target: human NK3 receptor (Homo sapiens)
- Assay comment: [3H]SR142801 competition binding assay
- Experimental setup: membrane from HEK293 cells transiently expressing recombinant human NK3 receptor; radioligand [3H]SR142801; Ki from IC50 by Cheng-Prussoff equation
Measurement type: pKi
Keep in mind that pKi stands for -log10 of concentration in molar terms.

The examples below pair each entry with its known result.
> print(dat)
                                   molecule  measurement
1  CS(=O)(=O)N1CCN(C(=O)N2C[C@H](CNc3ccc(C(F)(F)F)cn3)[C@@H](c3ccc(Cl)c(Cl)c3)C2)CC1 [Example 13]         8.18
2  CN(C[C@H]1CN(C(=O)C2CCN(C(=O)C3(C)CC3)CC2)C[C@@H]1c1ccc(Cl)c(Cl)c1)c1ccc(C#N)cn1 [Example 64]         7.50
3  CC1(C(=O)N2CCC(C(=O)N3C[C@H](CNc4ccc(C(F)(F)F)cn4)[C@@H](c4ccc(Cl)c(Cl)c4)C3)CC2)CC1 (racemic) [Example 21]         8.05
4  Cc1cc(C(=O)N2C[C@H](CNc3ncc(C(F)(F)F)cn3)[C@@H](c3ccc(Cl)c(Cl)c3)C2)cnn1 [Example 58]         8.92
5  CC1(C(=O)N2CCC(C(=O)N3CC(CNc4ccc(Cl)cn4)C(c4ccc(Cl)cc4)C3)CC2)CC1 (racemic) [Example 41]         7.06

Attention now shifts to the item below.
Look up pKi of CS(=O)(=O)N1CCN(C(=O)N2C[C@H](CNc3ccc(Cl)cn3)[C@@H](c3ccc(Cl)c(Cl)c3)C2)CC1 (racemic) [Example 30] and report it.
7.44

---

- Target: human NK3 receptor (Homo sapiens)
- Assay comment: [3H]SR142801 competition binding assay
- Experimental setup: membrane from HEK293 cells transiently expressing recombinant human NK3 receptor; radioligand [3H]SR142801; Ki from IC50 by Cheng-Prussoff equation
Measured pKi, listed per entry.
Keep in mind that pKi stands for -log10 of concentration in molar terms.

The examples below pair each entry with its known result.
> print(dat)
                                   molecule  measurement
1  CC(=O)N1CCC(C(=O)N2C[C@H](CNc3ncc(C(F)(F)F)cn3)[C@@H](c3ccc(Cl)c(Cl)c3)C2)CC1 (racemic)         8.12
2  Cc1cc(C(=O)N2C[C@H](CNc3ncc(Cl)cn3)[C@@H](c3ccc(Cl)c(Cl)c3)C2)cnn1 (racemic)         7.61
3  Cc1cc(C(=O)N2C[C@H](CNc3ccc(C(F)(F)F)cn3)[C@@H](c3ccc(Cl)c(Cl)c3)C2)cnn1 (racemic)         7.96
4  CC1(C(=O)N2CCC(C(=O)N3C[C@H](CNc4ncc(C(F)(F)F)cn4)[C@@H](c4ccc(F)cc4)C3)CC2)CC1 (racemic)         7.64

Attention now shifts to the item below.
Look up pKi of C[C@@H](Nc1ccc(C(F)(F)F)cn1)[C@H]1CN(C(=O)N2CCN(S(C)(=O)=O)CC2)C[C@@H]1c1ccc(Cl)c(Cl)c1 (racemic) and report it.
7.65

---

- Target: human NK3 receptor (Homo sapiens, UniProt P29371)
- Sequence (P29371 whole entry): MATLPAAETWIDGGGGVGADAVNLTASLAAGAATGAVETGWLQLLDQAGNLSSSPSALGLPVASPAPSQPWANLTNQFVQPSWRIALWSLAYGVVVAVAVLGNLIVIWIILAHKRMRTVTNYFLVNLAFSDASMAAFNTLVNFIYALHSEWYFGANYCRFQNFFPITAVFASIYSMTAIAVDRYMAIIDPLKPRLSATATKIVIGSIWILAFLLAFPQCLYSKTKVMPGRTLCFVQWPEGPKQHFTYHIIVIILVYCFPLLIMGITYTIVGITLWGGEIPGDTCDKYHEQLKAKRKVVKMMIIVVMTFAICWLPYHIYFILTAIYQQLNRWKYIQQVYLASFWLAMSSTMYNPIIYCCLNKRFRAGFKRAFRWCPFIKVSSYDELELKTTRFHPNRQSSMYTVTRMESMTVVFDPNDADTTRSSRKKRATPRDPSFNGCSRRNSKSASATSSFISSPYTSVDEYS
- Assay comment: [3H]SR142801 competition binding assay
- Experimental setup: membrane from HEK293 cells transiently expressing recombinant human NK3 receptor; radioligand [3H]SR142801; Ki from IC50 by Cheng-Prussoff equation
Measured log10 of Ki, listed per entry.
log10 Ki, nM

> print(dat)
                                   compound  measurement
1  CS(=O)(=O)N1CCN(C(=O)N2C[C@H](CSc3ccc(C(F)(F)F)cc3)[C@@H](c3ccc(Cl)c(Cl)c3)C2)CC1 (racemic) [Example 1]         1.70
2  Cc1cc(C(=O)N2C[C@H](CNc3ccc(C(F)(F)F)cn3)[C@@H](c3ccc(Cl)c(Cl)c3)C2)c(C)nn1 (racemic) [Example 23]         1.04
3  O=C(c1ccnnc1)N1C[C@H](CNc2ccc(C(F)(F)F)cn2)[C@@H](c2ccc(Cl)c(Cl)c2)C1 (racemic) [Example 22]         1.99
4  CN(C[C@H]1CN(C(=O)C2CCN(C(=O)C3(C)CC3)CC2)C[C@@H]1c1ccc(Cl)c(Cl)c1)c1ncc(C(F)(F)F)cn1 [Example 59]         0.36
5  CC1(C(=O)N2CCC(C(=O)N3C[C@H](CNc4ncc(Cl)cn4)[C@@H](c4ccc(Cl)c(Cl)c4)C3)CC2)CC1 (racemic) [Example 24]         1.22

Attention now shifts to the item below.
Give the observed log10 of Ki of CS(=O)(=O)N1CCN(C(=O)N2C[C@@H](CNc3ccc(C(F)(F)F)cn3)[C@H](c3ccc(Cl)c(Cl)c3)C2)CC1 [Example 14] for human NK3 receptor (Homo sapiens, UniProt P29371).
1.97
